# Test system: Plasmodium falciparum
# experimental_protocol: Antimalarial activity against Plasmodium falciparum FAC8
# Assay type: functional, organism-based
property_name: pIC50
# pIC50 is unitless: minus log10 of the molar concentration; print number only

Need pIC50, item CCN(CC)CCCC(C)Nc1ccnc2c(NC(=O)CCCCC(=O)Nc3cccc4c(NC(C)CCCN(CC)CC)ccnc34)cccc12 (stereo unspecified)
6.92

----------
# experimental_protocol: Toxicity in mouse assessed as maximum tolerated dose
# Assay type: organism-based
# assay_conditions: in vivo, read-out: Activity
Recorded measurements of MTD, one per entry

Recorded MTD of O=C(NCCNc1ccnc2cc(Cl)ccc12)C1CCC2(CC1)OOC1(CCCCC1)OO2 , please.
> 960 mg/kg

Tell me the measured MTD of Clc1ccc2c(NCCNCC3CCC4(CC3)OOC3(CCCCC3)OO4)ccnc2c1 , please.
> 960 mg/kg

----------
# experimental_protocol: Inhibition of Plasmodium falciparum protein farnesyltransferase
property_name: pIC50
In textbook form, pIC50 equals minus log to base ten of the concentration in mol/L.

What value of measured pIC50 is listed for Cn1cnc(S(=O)(=O)N(Cc2ccccc2)C2Cc3cc(C#N)ccc3N(Cc3cncn3C)C2)c1 (stereo unspecified) ?
9.22

----------
# experimental_protocol: Inhibition of Plasmodium falciparum falcipain-2
property_name: IC50 (µM)
Unit µM implied. Number only.

Any idea what IC50 was measured for CC1(C(=O)NC2CCCCC2)CCCC(=O)N1CCCCCCNc1ccnc2cc(Cl)ccc12 (stereo unspecified) ?
17.7
